- Test Summary: Pharmacokinetics of LOS and EXP3174 in the hypertension rat model (LC-MS)
- Assay type: in vivo, Wistar rats
- Assay Context: Wistar, rat, plasma, po, 10 mg/kg/day, hypertensive rats (L-NAME); LOS 10 mg/kg/d ig alone (LOS group)
Measurement Name: half-life (h)

Mol Smiles	Measurement Name	Observed Result
CCCCc1nc(Cl)c(CO)n1Cc1ccc(-c2ccccc2-c2nn[nH]n2)cc1	half-life	6.19
CCCCc1nc(Cl)c(C(=O)O)n1Cc1ccc(-c2ccccc2-c2nn[nH]n2)cc1	half-life	6.76

###

- Test Summary: Pharmacokinetics of LOS and EXP3174 in the hypertension rat model (LC-MS)
- Format: in vivo, Wistar rats
- Assay Context: Wistar, rat, plasma, po, 10 mg/kg/day, hypertensive rats (L-NAME); LOS 10 mg/kg/d ig + SMI 4 ml/kg/d tail vein (SMI-M+LOS group)
Measurement Name: AUC(0-t) (µg·h/mL)

Compound	Observed Result
CCCCc1nc(Cl)c(CO)n1Cc1ccc(-c2ccccc2-c2nn[nH]n2)cc1 [LOS, losartan potassium]	1.25
CCCCc1nc(Cl)c(C(=O)O)n1Cc1ccc(-c2ccccc2-c2nn[nH]n2)cc1 [EXP3174, losartan carboxylic acid]	1.38

###

- Test Summary: Pharmacokinetics of LOS and EXP3174 in the hypertension rat model (LC-MS)
- Type: in vivo, Wistar rats
- Assay Context: Wistar, rat, plasma, po, 10 mg/kg/day, hypertensive rats (L-NAME); LOS 10 mg/kg/d ig alone (LOS group)
Measurement Name: Tmax (h)

P. CCCCc1nc(Cl)c(CO)n1Cc1ccc(-c2ccccc2-c2nn[nH]n2)cc1 [LOS, losartan potassium]
Q. CCCCc1nc(Cl)c(C(=O)O)n1Cc1ccc(-c2ccccc2-c2nn[nH]n2)cc1 [EXP3174, losartan carboxylic acid]
For the two items P and Q , which reports the higher Tmax value? Selection: enter the item's label. Q
(Q: 4.33 h, P: 2 h)

###

- Test Summary: Pharmacokinetics of LOS and EXP3174 in the hypertension rat model (LC-MS)
- Type: in vivo, Wistar rats
- Assay Context: Wistar, rat, plasma, po, 10 mg/kg/day, hypertensive rats (L-NAME); LOS 10 mg/kg/d ig + SMI 4 ml/kg/d tail vein (SMI-M+LOS group)
Measurement Name: MRT (h)

Mol Smiles	MRT (h)
CCCCc1nc(Cl)c(CO)n1Cc1ccc(-c2ccccc2-c2nn[nH]n2)cc1	11.3
CCCCc1nc(Cl)c(C(=O)O)n1Cc1ccc(-c2ccccc2-c2nn[nH]n2)cc1	11.4

###

- Test Summary: Pharmacokinetics of LOS and EXP3174 in the hypertension rat model (LC-MS)
- Assay type: in vivo, Wistar rats
- Assay Context: Wistar, rat, plasma, po, 10 mg/kg/day, hypertensive rats (L-NAME); LOS 10 mg/kg/d ig alone (LOS group)
Measurement Name: Cmax (ng/mL)

Mol Smiles	Cmax, ng/mL
CCCCc1nc(Cl)c(CO)n1Cc1ccc(-c2ccccc2-c2nn[nH]n2)cc1	112
CCCCc1nc(Cl)c(C(=O)O)n1Cc1ccc(-c2ccccc2-c2nn[nH]n2)cc1	119

###

- Test Summary: Pharmacokinetics of LOS and EXP3174 in the hypertension rat model (LC-MS)
- Type: in vivo, Wistar rats
- Assay Context: Wistar, rat, plasma, po, 10 mg/kg/day, hypertensive rats (L-NAME); LOS 10 mg/kg/d ig + SMI 6 ml/kg/d tail vein (SMI-H+LOS group)
Measurement Name: AUC(0-inf) (ng·h/mL)

Mol Smiles	AUC(0-inf), ng·h/mL
CCCCc1nc(Cl)c(CO)n1Cc1ccc(-c2ccccc2-c2nn[nH]n2)cc1	1420
CCCCc1nc(Cl)c(C(=O)O)n1Cc1ccc(-c2ccccc2-c2nn[nH]n2)cc1	1380
